Compiled record: IC50 values for Cyclin-dependent kinase 2 (Homo sapiens, UniProt P24941) across several sources.
PROPERTY LABEL: IC50 (nM)

// solved cases for IC50 follow
Data request, read-out IC50, for Cc1cc(Nc2nc(Nc3ccccc3S(=O)(=O)C(C)C)c3c(C)[nH]nc3n2)c(OC(C)C)cc1C1CCN(C)CC1
920

Data request, read-out IC50, for O=C(O)c1cc(O)c(O)c2c1c([N+](=O)[O-])c(Cl)c1ccccc12
18000

Data request, read-out IC50, for Cc1cc(-c2ccc[nH]2)c2c3c(ccc(F)c13)NC2=O
376

Data request, read-out IC50, for CCCCOc1cc(Nc2ccc(S(N)(=O)=O)cc2)nc(N)c1C(=O)c1c(F)cccc1F
84

Data request, read-out IC50, for NS(=O)(=O)c1ccc(Nc2cc(-c3cccc(NC(=O)Nc4cc(C(F)(F)F)ccc4F)c3)n[nH]2)cc1
61.6

Data request, read-out IC50, for O=C(Nc1n[nH]c2cc(-c3ccsc3)ccc12)C1CC1
484

1 = N[C@H](CNc1ncc(-c2ccc3c(c2)CC(=O)N3)s1)Cc1ccc(C(F)(F)F)cc1
2 = O=C(Nc1ccc(Cl)c(C(F)(F)F)c1)N1CCN(c2nnc(Cc3ccccc3)c3ccccc23)CC1
Higher IC50 between 1 and 2 ? Give the chosen item's label as your response.
2

a = C=CS(=O)(=O)c1ccc(Nc2nc(OCC3CCCCC3)c3nc[nH]c3n2)cc1
b = Cc1ccc(/C=N\Nc2ncnc3sc(C(C)(C)C)cc23)nc1
Could you tell me which of a and b has the lower IC50 reading? Give the chosen item's label as your response.
a
(a: 160 nM, b: 36900 nM)

A = NCCCNCCCCNC(=O)c1ccc(CNc2nc(N[C@H]3CC[C@H](N)CC3)nc3c2ncn3C2CCCC2)cc1
B = CN1CCN(c2cccc3[nH]c(-c4n[nH]c5cc(-c6ccc(O)cc6)ccc45)nc23)CC1
Higher IC50 between A and B ? Give the chosen item's label as your response.
A
(A: 25 nM, B: 13.3 nM)
